System: rCHIKV P34S
Assay type: cell-based, Chikungunya virus
Details: at the concentrations tested, Fig. 2
measure: Sensitivity or resistance of CHIKV nsP1-P34S to the compound

In [3]: df
Out[3]:
                                   compound  measuredtarget         valueobserved
0  CCC1=NC2C(N=NN2c2cccc(OC(C)C)c2)C(=O)N1 (stereo not shown)     rCHIKV P34S  completely resistant
1  NC(=O)c1nc(F)c[nH]c1=O [Favipiravir, reference compound]     rCHIKV P34S             sensitive
2  CCNc1nc(C)cc(N2CCN(C(=O)c3ccc(C)cc3)CC2)n1     rCHIKV P34S  completely resistant
3  Nc1ncnc2c1ncn2[C@@H]1O[C@H](C[C@@H](N)CC[C@H](N)C(=O)O)[C@@H](O)[C@H]1O [Sinefungin, reference compound]     rCHIKV P34S             sensitive
